Would you kindly list pEC50 for each of these molecules?
molecular target: HLA-A3 (Homo sapiens, UniProt P04439); test: Assembly assay, HLA-A3; details: Table 4, HLA-A3; read-out: C50
Sequence (P04439 25-365): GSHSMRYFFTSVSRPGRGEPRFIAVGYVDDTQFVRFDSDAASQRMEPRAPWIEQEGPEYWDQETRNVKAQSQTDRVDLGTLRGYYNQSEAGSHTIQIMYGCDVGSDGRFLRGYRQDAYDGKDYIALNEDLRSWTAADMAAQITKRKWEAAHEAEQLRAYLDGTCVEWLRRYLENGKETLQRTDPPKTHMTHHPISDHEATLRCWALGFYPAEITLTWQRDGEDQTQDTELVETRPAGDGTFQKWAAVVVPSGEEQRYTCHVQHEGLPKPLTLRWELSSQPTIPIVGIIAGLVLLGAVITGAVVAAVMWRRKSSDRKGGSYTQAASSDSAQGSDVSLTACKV
Sequence (P61769 21-119 partner): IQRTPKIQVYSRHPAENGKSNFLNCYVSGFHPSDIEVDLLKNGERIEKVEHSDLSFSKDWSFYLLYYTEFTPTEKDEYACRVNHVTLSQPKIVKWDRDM
// pEC50 is dimensionless: -log10 of concentration (M)

The reported value for CC(C)C[C@H](NC(=O)[C@@H](N)[C@@H](C)O)C(=O)N1CCC[C@H]1C(=O)N1CCC[C@H]1C(=O)N[C@@H](C)C(=O)N[C@@H](Cc1c[nH]c2ccccc12)C(=O)N[C@@H](CCC(N)=O)C(=O)N1CCC[C@H]1C(=O)N[C@@H](CCCCN)C(=O)O [Sur5K9] in terms of pEC50 is 5.70

The reported value for CC[C@H](C)[C@H](NC(=O)[C@@H](N)[C@@H](C)O)C(=O)N[C@@H](CCCNC(=N)N)C(=O)N[C@@H](CCCNC(=N)N)C(=O)N[C@@H](CCCCN)C(=O)N[C@@H](CC(N)=O)C(=O)N[C@@H](CC(C)C)C(=O)N[C@@H](CCCNC(=N)N)C(=O)N[C@@H](CCCCN)C(=O)O [SurEx3-A3-1] in terms of pEC50 is 6.30

---

Molecular target: HLA-A3 (Homo sapiens, UniProt P04439)
Experiment: Assembly assay, HLA-A3
Type: binding
Procedure: The binding affinity of synthetic peptides (Invitrogen, Carlsbad, Calif., USA) to HLA-A1, -A2, A3, or -A11 molecules metabolically labeled with [^35S]-methionine was measured in the assembly assay, as described previously (12). […] MHC heavy chain bands were quantified using the ImageGauge Phosphorimager program (FUJI photo film Co., Carrollton, Tex., USA). […] The C50 value was subsequently calculated for each peptide as the peptide concentration sufficient for half maximal stabilization.

{"Substance Smiles": "CC[C@H](C)[C@H](NC(=O)[C@@H](N)CCCCN)C(=O)N[C@@H](C)C(=O)N[C@@H](CCCCN)C(=O)N[C@@H](CCC(=O)O)C(=O)N[C@H](C(=O)N[C@@H](CC(N)=O)C(=O)N[C@@H](CC(N)=O)C(=O)N[C@@H](CCCCN)C(=O)N[C@@H](CCCCN)C(=O)O)[C@@H](C)O", "System": "HLA-A3 (Homo sapiens, UniProt P04439)", "binding to HLA-A3, in words": "high affinity"}
{"Substance Smiles": "CC[C@H](C)[C@H](NC(=O)[C@@H](N)CCCNC(=N)N)C(=O)N[C@@H](CO)C(=O)N[C@H](C(=O)N[C@@H](Cc1ccccc1)C(=O)N[C@@H](CCCCN)C(=O)N[C@@H](CC(N)=O)C(=O)N[C@@H](Cc1c[nH]c2ccccc12)C(=O)N1CCC[C@H]1C(=O)N[C@@H](CCCCN)C(=O)O)[C@@H](C)O", "System": "HLA-A3 (Homo sapiens, UniProt P04439)", "binding to HLA-A3, in words": "high affinity"}
{"Substance Smiles": "CC(C)C[C@H](NC(=O)[C@@H](N)CC(C)C)C(=O)N[C@@H](CCC(N)=O)C(=O)N[C@@H](CS)C(=O)N[C@@H](Cc1ccccc1)C(=O)N[C@@H](Cc1ccccc1)C(=O)N[C@@H](CS)C(=O)N[C@@H](Cc1ccccc1)C(=O)N[C@@H](CCCCN)C(=O)O", "System": "HLA-A3 (Homo sapiens, UniProt P04439)", "binding to HLA-A3, in words": "high affinity"}
